Kd by entry:
Biological target: T1, human Ang2 (human, UniProt O15123 19-496, limits assumed)
T1 construct: also called hAng2; h Ang2
T1 sequence: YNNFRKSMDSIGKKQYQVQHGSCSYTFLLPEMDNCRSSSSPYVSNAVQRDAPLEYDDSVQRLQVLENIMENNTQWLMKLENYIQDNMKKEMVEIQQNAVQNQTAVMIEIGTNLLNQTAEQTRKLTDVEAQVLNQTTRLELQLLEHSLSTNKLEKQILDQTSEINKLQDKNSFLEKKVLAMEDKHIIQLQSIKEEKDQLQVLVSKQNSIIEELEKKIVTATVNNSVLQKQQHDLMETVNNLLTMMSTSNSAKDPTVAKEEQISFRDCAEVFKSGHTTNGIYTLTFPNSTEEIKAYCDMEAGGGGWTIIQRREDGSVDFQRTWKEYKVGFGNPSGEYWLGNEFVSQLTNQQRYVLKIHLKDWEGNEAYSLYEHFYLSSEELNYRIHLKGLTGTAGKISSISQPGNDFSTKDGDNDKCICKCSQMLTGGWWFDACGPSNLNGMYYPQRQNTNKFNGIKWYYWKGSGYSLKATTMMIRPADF
Test: ForteBio BLI, antibody on AHQ sensor, 100 nM antigen, 1:1 model
result_type: Kd (nM)

binder	result_type	val
affinity matured antibody Amhz81H10.4.30 (antibody, human IgG1, kappa, V domains shown) VH: EVQLVESGGGLVKPGGSLRLSCAASGFTFRAAWMNWVRQAPGKGLEWVAEIRLKSNHYETHYAESVKGRFTISRDVSKNTVYLQMNSLKTEDTAVYYCTDTQPGAYWGQGTLVTVSS VL: DIQMTQSPSSLSASVGDRVTITCKASQYVFTDVAWYQQKPGKAPKLLIYWASTRWTGVPSRFSGSGSGTDFTLTISSLQPEDFATYYCQQTSSYPLTFGGGTKVEIKR	Kd	23.2
chimeric antibody 81H10 (antibody, human IgG1, kappa, V domains shown) VH: EVKLEESGGGLVQPGGSMKLSCVASGFTFSNYWMNWVRQSPEKGLEWVAEIRLKSNNYATHYAESVKGRFTISRDVSKSSVYLQMNNLRTEDTGIYYCTDTAPFAYWGQGTLVTVSA VL: DIVMTQSHKFMSTSVGDRVSITCKASQDVGTDVAWYQQKPGQSPKLLIYWASTRHTGVPDRFTGSGSGTDFTLTISNVQSEDLSDYFCQQYSSYPLTFGGGTKLEIKR	Kd	6.92
affinity matured antibody Amhz81H10.4.49 (antibody, human IgG1, kappa, V domains shown, also called Am81H10.4.49) VH: EVQLVESGGGLVKPGGSLRLSCAASGFTFQNYWANWVRQAPGKGLEWVAEIRLKSNNYATHYAESVKGRFTISRDVSKNTVYLQMNSLKTEDTAVYYCTDTTPAAYWGQGTLVTVSS VL: DIQMTQSPSSLSASVGDRVTITCKASQDVWTDVAWYQQKPGKAPKLLIYWGSTRWTGVPSRFSGSGSGTDFTLTISSLQPEDFATYYCQQTNIYPLTFGGGTKVEIKR	Kd	0.647
humanized antibody hz81H10.4 (antibody, human IgG1, kappa, V domains shown, also called IBI335) VH: EVQLVESGGGLVKPGGSLRLSCAASGFTFSNYWMNWVRQAPGKGLEWVAEIRLKSNNYATHYAESVKGRFTISRDVSKNTVYLQMNSLKTEDTAVYYCTDTAPFAYWGQGTLVTVSS VL: DIQMTQSPSSLSASVGDRVTITCKASQDVGTDVAWYQQKPGKAPKLLIYWASTRHTGVPSRFSGSGSGTDFTLTISSLQPEDFATYYCQQYSSYPLTFGGGTKVEIKR	Kd	1.25
